Assign logP to each entry below.

For the 3 compounds below, give their logP values.
1. CN1C(=N)SC(=Cc2ccc([N+](=O)[O-])o2)C1=O
2. ClC1C=CCC(Cl)C1Cl (centres undefined)
3. C=C(C)C(=O)OC(C)C

1: 1.44; 2: 2.84; 3: 2.25

----------
Assign logP to each entry below.

Can you look up the measured logP of COc1cc(C)nn1-c1ccncn1 for me?
0.5

How about this compound: Cc1cccc2c1ncc[n+]2[O-]
1.2

How about this compound: COc1cc(Cc2cnc(N)nc2N)ccc1Nc1ccccc1
3.42

For the 8 compounds below, give their logP values.
1. COc1cc(CC(=O)O)ccc1OCC1CCCCC1
2. COc1nnc(C(C)C)c(=O)n1N
3. COc1cc(Cc2cnc(N)nc2N)cc(OC)c1C(N)=O
4. CSC(C)=NOC(=O)N(C)SN(C)C(=O)C(C)C
5. Nc1nnc(S(N)(=O)=O)s1
6. Cn1c(C(C)(C)O)cnc1[N+](=O)[O-]
7. CCOc1ccc(OC(C)=O)cc1
8. COc1cn[nH]c1

3.35
-0.06
-0.85
2.2
-0.9
0.43
1.95
0.37

For the 5 compounds below, give their logP values.
1. COCC(O)Cn1c([N+](=O)[O-])cnc1C (centres undefined)
2. COc1cc(S(=O)(=O)CCN2CCOCC2)cc(OC)c1OC
3. C=CCS(=O)(=O)c1cc(OC)c(OC)c(OC)c1
4. COc1ccc(OC(=O)CNC(=O)c2ccccc2)cc1
5. CSC(C)=NOC(=O)N(C)SN(C)C(=O)OC(C)(C)C

[0.04, 1.29, 1.34, 2.28, 2.8]

For the 2 compounds below, give their logP values.
1. COc1cc(CC(C)N)cc(OC)c1OC (centres undefined)
2. CC(=O)c1ccccc1NCCO

1.21
1.59

----------
Assign logP to each entry below.
Give bare numbers.

Please review the entries below; each comes with its answer.
Can you look up the measured logP of Cc1[nH]c(=O)n(OCC(C)C)c(=O)c1Br for me?
1.23

How about this molecule: CSC(C)=NOC(=O)N(C)SN(C)C(=O)c1cccc(Cl)c1
2.7

How about this molecule: CS(=O)(=O)c1cccc(CC(=O)O)c1
0.06

For the 3 molecules below, give their logP values.
1. Cc1nnc(SCc2ccccc2)[nH]1
2. COc1cc(Cc2cnc(N)nc2N)cc(OC)n1
3. CCCCCCOn1c(=O)[nH]c(C)c(Br)c1=O

[1.68, 1.64, 2.48]

For the 6 molecules below, give their logP values.
1. CCOP(=O)(OCC)SCS(=O)CC (stereo not drawn)
2. CCOc1cc(Cc2cnc(N)nc2N)cc(OCC)c1C(=O)CS(C)(=O)=O
3. Clc1ccccc1NC1=NCCN1
4. COc1ccc(C(c2ccc(OC)cc2)C(Cl)Cl)cc1
5. CNc1cc(Cc2cnc(N)nc2N)cc(N(C)C)c1OC
6. CCOC(=O)CCCCCN1C(=O)C=CC1=O

1: 1.78; 2: 0.79; 3: 1.36; 4: 4.47; 5: 1.56; 6: 1.5

Can you look up the measured logP of CCCNC1CC2CC1c1ccccc12 (stereo not drawn) for me?
3.3

----------
# thresholds on logP define classes: low value = under 1, medium value = from 1 up to 2, high value = 2 and over

Below, 3 compounds whose answers are already recorded.
Place this compound in its band: COc1cccc(C=C(C(C)=O)C(C)=O)c1
medium value

How about this compound: Nc1nc(N)nc(-c2ccc(Cl)cc2Br)n1
high value

How about this compound: CC(=O)Cn1ccnc1[N+](=O)[O-]
low value

New cases:
Place this compound in its band: O=C1CN=C(c2cccc(Br)c2)c2cc(Br)ccc2N1
high value

How about this compound: O=S(=O)(Nc1ccc(F)cc1F)C(F)(F)F
high value

How about this compound: CC(=O)OCC1=C(C(=O)O)N2C(=O)[C@@H](NC(=O)CBr)[C@H]2SC1
low value
